molecular target: Glutamate receptor ionotropic, NMDA 2B (Mus musculus, UniProt P35438+Q01097); test: Antagonist activity at mouse NR2B expressed in Hek293 cells co-expressing mouse NR1 assessed as inhibition of glutamic acid/glycine-induced intracellular Ca2+ levels measured after 1 day post induction by Fluo-3/AM dye-based fluorescence assay; type: cell-based
Sequence (Q01097 whole entry, one chain of several): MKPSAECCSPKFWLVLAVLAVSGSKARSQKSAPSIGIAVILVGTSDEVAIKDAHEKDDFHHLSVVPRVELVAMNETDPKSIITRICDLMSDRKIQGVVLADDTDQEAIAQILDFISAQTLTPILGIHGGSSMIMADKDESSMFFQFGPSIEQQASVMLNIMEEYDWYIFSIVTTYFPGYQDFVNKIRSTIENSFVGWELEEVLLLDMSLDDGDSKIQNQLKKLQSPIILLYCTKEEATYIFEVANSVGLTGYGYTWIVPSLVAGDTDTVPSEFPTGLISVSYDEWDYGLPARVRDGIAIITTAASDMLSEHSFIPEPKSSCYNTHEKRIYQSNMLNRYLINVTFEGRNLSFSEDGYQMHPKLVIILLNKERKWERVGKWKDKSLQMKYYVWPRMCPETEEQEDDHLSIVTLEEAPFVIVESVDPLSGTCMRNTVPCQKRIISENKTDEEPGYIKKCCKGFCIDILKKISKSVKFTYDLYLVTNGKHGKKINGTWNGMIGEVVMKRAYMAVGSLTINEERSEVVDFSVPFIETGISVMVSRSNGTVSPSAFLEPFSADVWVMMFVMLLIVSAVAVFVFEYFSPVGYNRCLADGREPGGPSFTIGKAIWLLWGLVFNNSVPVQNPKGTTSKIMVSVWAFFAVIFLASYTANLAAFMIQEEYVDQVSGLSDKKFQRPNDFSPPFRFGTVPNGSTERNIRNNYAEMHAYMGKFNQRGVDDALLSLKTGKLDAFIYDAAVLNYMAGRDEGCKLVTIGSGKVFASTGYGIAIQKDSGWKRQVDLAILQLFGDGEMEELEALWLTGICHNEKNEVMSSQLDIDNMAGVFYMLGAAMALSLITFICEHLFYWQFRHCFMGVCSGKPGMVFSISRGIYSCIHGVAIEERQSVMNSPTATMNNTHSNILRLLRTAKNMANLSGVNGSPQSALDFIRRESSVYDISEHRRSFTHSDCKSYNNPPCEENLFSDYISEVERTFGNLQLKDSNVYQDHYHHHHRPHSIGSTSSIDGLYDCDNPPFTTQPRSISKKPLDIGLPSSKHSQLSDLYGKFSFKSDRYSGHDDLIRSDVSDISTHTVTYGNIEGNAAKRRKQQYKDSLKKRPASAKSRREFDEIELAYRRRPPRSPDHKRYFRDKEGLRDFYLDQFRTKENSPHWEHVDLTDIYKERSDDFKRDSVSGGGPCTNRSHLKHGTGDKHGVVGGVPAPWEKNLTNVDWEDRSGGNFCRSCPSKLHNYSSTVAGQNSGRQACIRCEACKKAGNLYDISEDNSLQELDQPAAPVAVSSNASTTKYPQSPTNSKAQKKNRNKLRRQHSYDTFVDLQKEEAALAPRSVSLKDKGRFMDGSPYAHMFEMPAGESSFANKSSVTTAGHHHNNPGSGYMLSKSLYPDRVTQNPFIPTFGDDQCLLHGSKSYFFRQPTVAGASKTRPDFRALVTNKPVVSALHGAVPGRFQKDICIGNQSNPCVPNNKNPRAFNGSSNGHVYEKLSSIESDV
pIC50: −log10 of the molar value.
Returns Satisfied if the recorded pIC50 is greater than or equal to 8, and Not satisfied otherwise.

[[record]]
smiles_record = "O[C@]1(Cc2cc(-c3cn[nH]c3)on2)CC[C@@H](Cc2ccc(Cl)cc2)CC1"
class_label = "Not satisfied"

[[record]]
smiles_record = "O=c1ccc(-c2cc(C[C@]3(O)CC[C@@H](Cc4ccc(Cl)cc4)CC3)no2)c[nH]1"
class_label = "Satisfied"

[[record]]
smiles_record = "O=C(C[C@]1(O)CC[C@@H](Cc2ccc(F)c(F)c2)CC1)Nc1ccc2[nH]c(=O)oc2c1"
class_label = "Satisfied"


Shift focus to the following entry.
query: Record O[C@]1(Cc2cc(-c3cn[nH]c3)on2)CC[C@H](Cc2ccc(F)c(F)c2)CC1 ; criterion: pIC50 no lower than 8. Met?
result: Not satisfied

###

test: Total clearance in Sprague-Dawley rat at 0.5 mg/kg, iv or 1 mg/kg, po administered through cassette dosing; format: ADME, organism-based; conditions: in vivo
Doc: threshold 20 mL/min/kg (exclusive). Items with clearance beneath it return 1; others return 0.

See these solved cases before continuing.
[[record]]
smiles_record = "O[C@]1(Cc2cc(-c3cn[nH]c3)on2)CC[C@H](Cc2ccc(F)c(F)c2)CC1"
class_label = 1

[[record]]
smiles_record = "O[C@]1(Cc2cc(-c3cn[nH]c3)on2)CC[C@H](Cc2ccc(C(F)(F)F)cc2)CC1"
class_label = 1

[[record]]
smiles_record = "O[C@]1(Cc2cc(-c3cn[nH]c3)on2)CC[C@H](Cc2ccc(Cl)cc2)CC1"
class_label = 1

[[record]]
smiles_record = "COc1ccc(C[C@H]2CC[C@](O)(Cc3cc(-c4cn[nH]c4)on3)CC2)cc1"
class_label = 0


query: Field: below-cutoff. Rule: recorded clearance strictly less than 20 mL/min/kg. Subject: O=c1ccc(-c2cc(C[C@]3(O)CC[C@@H](Cc4ccccc4)CC3)no2)c[nH]1
result: 0

query: Field: below-cutoff. Rule: recorded clearance strictly less than 20 mL/min/kg. Subject: O=C(C[C@]1(O)CC[C@@H](Cc2ccc(OC(F)(F)F)cc2)CC1)Nc1ccc2[nH]c(=O)oc2c1
result: 0

query: Field: below-cutoff. Rule: recorded clearance strictly less than 20 mL/min/kg. Subject: O=C(C[C@]1(O)CC[C@@H](Cc2ccc(F)c(F)c2)CC1)Nc1ccc2[nH]c(=O)oc2c1
result: 0

query: Field: below-cutoff. Rule: recorded clearance strictly less than 20 mL/min/kg. Subject: O=C1Cc2cc(NC(=O)C[C@]3(O)CC[C@@H](Cc4ccccc4)CC3)ccc2N1
result: 1

query: Field: below-cutoff. Rule: recorded clearance strictly less than 20 mL/min/kg. Subject: O[C@]1(Cc2cc(-c3cn[nH]c3)on2)CC[C@H](Cc2ccc(F)cc2)CC1
result: 0

###

molecular target: Glutamate receptor ionotropic, NMDA 2B (Mus musculus, UniProt P35438+Q01097); experiment: Antagonist activity at mouse NR2B expressed in Hek293 cells co-expressing mouse NR1 assessed as inhibition of glutamic acid/glycine-induced intracellular Ca2+ levels measured after 1 day post induction by Fluo-3/AM dye-based fluorescence assay
Observation type: pIC50
Kindly note that pIC50 refers to -log10 of the concentration in mol/L and answer with the value alone.

Solved cases below.
[[record]]
smiles_record = "O=C(C[C@]1(O)CC[C@H](Cc2ccccc2)CC1)Nc1ccc2[nH]c(=O)oc2c1"
observed_result = 7.80

[[record]]
smiles_record = "O[C@]1(Cc2cc(-c3cn[nH]c3)on2)CC[C@H](Cc2ccc(F)cc2)CC1"
observed_result = 7.90


--- query ---
query: Look up and report pIC50, with Glutamate receptor ionotropic, NMDA 2B (Mus musculus, UniProt P35438+Q01097) as system, for O[C@]1(Cc2cc(-c3cn[nH]c3)on2)CC[C@H](Cc2ccc(Cl)cc2)CC1
result: 8.20
